biological target: α4β3δ GABA receptors (α4β3δ-HEK-FlpIn-TRex stable cell strain) (Homo sapiens, UniProt P28472+P48169); construct: expressed in transfected cells; assay: Whole-cell patch clamp, extrasynaptic functional activity (positive allosteric regulation of GABA-induced current); format: cell-based; settings: patch clamp -60 mV, GABA at EC10-20, α4β3δ-HEK-FlpIn-TRex cells
Sequence (P48169 36-554): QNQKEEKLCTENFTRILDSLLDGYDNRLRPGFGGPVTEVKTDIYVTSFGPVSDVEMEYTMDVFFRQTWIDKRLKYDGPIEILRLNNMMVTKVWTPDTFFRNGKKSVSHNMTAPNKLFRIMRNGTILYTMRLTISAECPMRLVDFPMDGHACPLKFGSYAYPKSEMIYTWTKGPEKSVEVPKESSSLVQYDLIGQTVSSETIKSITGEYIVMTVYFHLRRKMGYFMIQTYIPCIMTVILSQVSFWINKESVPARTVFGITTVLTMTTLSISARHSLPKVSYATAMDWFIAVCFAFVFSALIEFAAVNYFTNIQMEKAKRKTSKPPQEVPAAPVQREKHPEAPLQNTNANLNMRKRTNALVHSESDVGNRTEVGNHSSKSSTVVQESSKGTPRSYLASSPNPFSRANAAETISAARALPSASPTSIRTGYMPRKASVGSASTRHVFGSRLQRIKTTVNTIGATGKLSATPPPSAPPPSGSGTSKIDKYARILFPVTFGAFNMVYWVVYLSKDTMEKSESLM
Sequence (P28472 26-473): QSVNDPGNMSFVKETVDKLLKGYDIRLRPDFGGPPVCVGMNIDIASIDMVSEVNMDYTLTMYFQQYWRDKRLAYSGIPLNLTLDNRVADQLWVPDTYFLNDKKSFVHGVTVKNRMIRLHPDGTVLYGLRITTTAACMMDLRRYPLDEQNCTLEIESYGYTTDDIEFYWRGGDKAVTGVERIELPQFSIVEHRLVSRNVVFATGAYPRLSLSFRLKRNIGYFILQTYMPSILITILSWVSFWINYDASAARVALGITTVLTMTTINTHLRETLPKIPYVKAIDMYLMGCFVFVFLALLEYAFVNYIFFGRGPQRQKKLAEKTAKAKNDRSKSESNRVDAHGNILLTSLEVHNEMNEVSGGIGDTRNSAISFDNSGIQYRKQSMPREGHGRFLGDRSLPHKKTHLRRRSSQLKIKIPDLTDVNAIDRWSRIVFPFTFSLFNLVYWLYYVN
Sequence (O14764 25-452 partner): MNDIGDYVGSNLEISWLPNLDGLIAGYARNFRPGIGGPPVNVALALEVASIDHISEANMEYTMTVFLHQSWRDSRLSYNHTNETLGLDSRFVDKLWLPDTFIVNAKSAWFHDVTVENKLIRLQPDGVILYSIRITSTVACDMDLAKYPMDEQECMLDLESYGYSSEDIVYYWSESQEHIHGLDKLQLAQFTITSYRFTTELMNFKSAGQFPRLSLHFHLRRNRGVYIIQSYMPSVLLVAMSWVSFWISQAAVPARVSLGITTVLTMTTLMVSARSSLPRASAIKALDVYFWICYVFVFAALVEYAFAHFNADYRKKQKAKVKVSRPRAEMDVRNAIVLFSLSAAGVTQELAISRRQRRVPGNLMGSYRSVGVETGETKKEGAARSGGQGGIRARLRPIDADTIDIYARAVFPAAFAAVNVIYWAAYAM
Each item that follows carries a reported Emax.
VALUE_KIND: Emax (%)

>  <COMPOUND>
C[C@@]1(O)CC[C@H]2[C@H](CC[C@@H]3[C@@H]2CC[C@]2(C)[C@@H](C(=O)Cn4cnn(-c5cccc(F)n5)c4=O)CC[C@@H]32)C1 [Compound 20]

>  <VALUE_KIND>
Emax

>  <READING_UNIT>
%

>  <VALUE>
966

$$$$
>  <COMPOUND>
COc1cccc(-n2ncn(CC(=O)[C@H]3CC[C@H]4[C@@H]5CC[C@@H]6C[C@](C)(O)CC[C@@H]6[C@H]5CC[C@]34C)c2=O)c1 [Compound 5]

>  <VALUE_KIND>
Emax

>  <READING_UNIT>
%

>  <VALUE>
570

$$$$
>  <COMPOUND>
Cc1cc(-n2ncn(CC(=O)[C@H]3CC[C@H]4[C@@H]5CC[C@@H]6C[C@](C)(O)CC[C@@H]6[C@H]5CC[C@]34C)c2=O)ccn1 [Compound 36]

>  <VALUE_KIND>
Emax

>  <READING_UNIT>
%

>  <VALUE>
745

$$$$

----------
test: In vitro liver microsomal stability assay, human; type: in vitro ADME; conditions: Human liver microsomes 0.5 mg/mL, NADPH
Each item that follows carries a reported Remaining amount % at 60 min.

>  <SMILES_INPUT>
C[C@@]1(O)CC[C@H]2[C@H](CC[C@@H]3[C@@H]2CC[C@]2(C)[C@@H](C(=O)Cn4cnn(-c5ccccc5)c4=O)CC[C@@H]32)C1

>  <Remaining amount % at 60 min (%)>
70.25

$$$$
>  <SMILES_INPUT>
CC(C)(C)n1ncn(CC(=O)[C@H]2CC[C@H]3[C@@H]4CC[C@@H]5C[C@](C)(O)CC[C@@H]5[C@H]4CC[C@]23C)c1=O

>  <Remaining amount % at 60 min (%)>
48.81

$$$$
>  <SMILES_INPUT>
COCCn1ncn(CC(=O)[C@H]2CC[C@H]3[C@@H]4CC[C@@H]5C[C@](C)(O)CC[C@@H]5[C@H]4CC[C@]23C)c1=O

>  <Remaining amount % at 60 min (%)>
28.5

$$$$
>  <SMILES_INPUT>
C[C@@]1(O)CC[C@H]2[C@H](CC[C@@H]3[C@@H]2CC[C@]2(C)[C@@H](C(=O)Cn4cnn(-c5cc(Cl)ccn5)c4=O)CC[C@@H]32)C1

>  <Remaining amount % at 60 min (%)>
53.7

$$$$
>  <SMILES_INPUT>
COc1ccc(-n2ncn(CC(=O)[C@H]3CC[C@H]4[C@@H]5CC[C@@H]6C[C@](C)(O)CC[C@@H]6[C@H]5CC[C@]34C)c2=O)cn1

>  <Remaining amount % at 60 min (%)>
57.7

$$$$
>  <SMILES_INPUT>
C[C@@]1(O)CC[C@H]2[C@H](CC[C@@H]3[C@@H]2CC[C@]2(C)[C@@H](C(=O)Cn4cnn(-c5cccc(C(N)=O)c5)c4=O)CC[C@@H]32)C1

>  <Remaining amount % at 60 min (%)>
42.2

$$$$
>  <SMILES_INPUT>
Cc1cc(-n2ncn(CC(=O)[C@H]3CC[C@H]4[C@@H]5CC[C@@H]6C[C@](C)(O)CC[C@@H]6[C@H]5CC[C@]34C)c2=O)ccn1

>  <Remaining amount % at 60 min (%)>
15.9

$$$$
>  <SMILES_INPUT>
C[C@@]1(O)CC[C@H]2[C@H](CC[C@@H]3[C@@H]2CC[C@]2(C)[C@@H](C(=O)Cn4cnn(-c5cc(F)cc(C#N)c5)c4=O)CC[C@@H]32)C1

>  <Remaining amount % at 60 min (%)>
66.67

$$$$

----------
Target: α4β3δ GABA receptors (α4β3δ-HEK-FlpIn-TRex stable cell strain) (Homo sapiens, UniProt P28472+P48169)
Construct: expressed in transfected cells
Assay: Whole-cell patch clamp, extrasynaptic functional activity (positive allosteric regulation of GABA-induced current)
Assay type: cell-based
Conditions: patch clamp -60 mV, GABA at EC10-20, α4β3δ-HEK-FlpIn-TRex cells
Experimental: The α4β3δ-HEK-FlpIn-TRex stable cell strain was cultured in DMEM+10% FBS complete culture medium, with the selective antibiotics being 10 μg/mL Blasticidin, 100 µg/mL Zeocin, 100 µg/mL Hygromycin, and 0.2 μg/mL Puromycin. […] Whole-cell patch clamp recording was mainly employed in this experiment. […] Finally, the positive allosteric regulating effects of the test compounds on α1β2γ2 or α4β3δ were determined. […]
Field 'label' (enum: label 1 / label 0). Set to label 1 when Emax is strictly under 600%; else label 0.

>  <SMILES_INPUT>
CC(C)(C)n1ncn(CC(=O)[C@H]2CC[C@H]3[C@@H]4CC[C@@H]5C[C@](C)(O)CC[C@@H]5[C@H]4CC[C@]23C)c1=O

>  <CATEGORY>
label 0

$$$$
>  <SMILES_INPUT>
C[C@@]1(O)CC[C@H]2[C@H](CC[C@@H]3[C@@H]2CC[C@]2(C)[C@@H](C(=O)Cn4cnn(C5CCCCC5)c4=O)CC[C@@H]32)C1

>  <CATEGORY>
label 0

$$$$
>  <SMILES_INPUT>
C[C@@]1(O)CC[C@@]2(C)[C@@H](CC[C@@H]3[C@@H]2CC[C@]2(C)[C@@H](C(=O)Cn4cnn(-c5cccc(F)c5)c4=O)CC[C@@H]32)C1

>  <CATEGORY>
label 0

$$$$
>  <SMILES_INPUT>
Cc1cc(-n2ncn(CC(=O)[C@H]3CC[C@H]4[C@@H]5CC[C@@H]6C[C@](C)(O)CC[C@@H]6[C@H]5CC[C@]34C)c2=O)cc(C)n1

>  <CATEGORY>
label 1

$$$$
>  <SMILES_INPUT>
C[C@@]1(O)CC[C@H]2[C@H](CC[C@@H]3[C@@H]2CC[C@]2(C)[C@@H](C(=O)Cn4cnn(-c5ccc(F)cc5)c4=O)CC[C@@H]32)C1

>  <CATEGORY>
label 1

$$$$
>  <SMILES_INPUT>
C[C@@]1(O)CC[C@H]2[C@H](CC[C@@H]3[C@@H]2CC[C@]2(C)[C@@H](C(=O)Cn4cnn(CCOC(F)(F)F)c4=O)CC[C@@H]32)C1

>  <CATEGORY>
label 0

$$$$

----------
test: Pharmacokinetic study in CD-1 mice (plasma and brain); format: in vivo; conditions: male, mouse, plasma, IV 1 mg/kg
VALUE_KIND: MRT last (h)

>  <COMPOUND>
C[C@@]1(O)CC[C@H]2[C@H](CC[C@@H]3[C@@H]2CC[C@]2(C)[C@@H](C(=O)Cn4cnn(-c5cc(F)nc(F)c5)c4=O)CC[C@@H]32)C1 [Compound 41]

>  <READING_UNIT>
h

>  <VALUE>
7.9

$$$$

----------
assay: In vitro liver microsomal stability assay, rat; type: in vitro ADME; settings: Rat liver microsomes

>  <SMILES_INPUT>
COc1ccc(-n2ncn(CC(=O)[C@H]3CC[C@H]4[C@@H]5CC[C@@H]6C[C@](C)(O)CC[C@@H]6[C@H]5CC[C@]34C)c2=O)cn1

>  <T1/2>
15.5 min

$$$$
>  <SMILES_INPUT>
C[C@@]1(O)CC[C@H]2[C@H](CC[C@@H]3[C@@H]2CC[C@]2(C)[C@@H](C(=O)Cn4cnn(-c5cc(Cl)ccn5)c4=O)CC[C@@H]32)C1

>  <T1/2>
20.8 min

$$$$
>  <SMILES_INPUT>
C[C@@]1(O)CC[C@H]2[C@H](CC[C@@H]3[C@@H]2CC[C@]2(C)[C@@H](C(=O)Cn4cnn(-c5cccc(C(N)=O)c5)c4=O)CC[C@@H]32)C1

>  <T1/2>
17.6 min

$$$$

----------
assay: Pharmacokinetic study in CD-1 mice (plasma and brain); assay type: in vivo; conditions: male, mouse, plasma, oral, IG 5 mg/kg, 30 min, read-out: Plasma concentration

>  <COMPOUND>
C[C@@]1(O)CC[C@H]2[C@H](CC[C@@H]3[C@@H]2CC[C@]2(C)[C@@H](C(=O)Cn4cnn(-c5cc(F)nc(F)c5)c4=O)CC[C@@H]32)C1 [Compound 41]

>  <READING_UNIT>
µg/mL

>  <concentration at 30 min>
0.936

$$$$

----------
assay: Pharmacokinetic study in CD-1 mice (plasma and brain); format: in vivo; conditions: male, mouse, brain/plasma, oral, IG 5 mg/kg, 2 h, read-out: Brain-to-blood ratio

>  <SMILES_INPUT>
C[C@@]1(O)CC[C@H]2[C@H](CC[C@@H]3[C@@H]2CC[C@]2(C)[C@@H](C(=O)Cn4cnn(-c5cc(F)nc(F)c5)c4=O)CC[C@@H]32)C1

>  <Kp at 2 h>
1.5

$$$$

The reported numbers originate from patent US20250368678A1.
